Target: MAX protein (SPR) (human, UniProt P61244 1-160)
Sequence (P61244 whole entry): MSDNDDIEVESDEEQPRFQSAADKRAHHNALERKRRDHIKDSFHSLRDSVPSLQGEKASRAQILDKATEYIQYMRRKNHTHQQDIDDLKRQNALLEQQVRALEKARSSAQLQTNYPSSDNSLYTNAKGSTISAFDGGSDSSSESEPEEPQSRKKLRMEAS
Test: SPR
Where no end group is shown, it is not given here. [ ]: non-standard residue; d: D form.
Endpoint Name: Kd (µM)
Numeric only. Scale: µM

* [dE][dR][dQ][dR][dR][dN][dE][dL][dK][dR][dS][dF][dF][dA][dL][dR] [CM1 peptide] | 0.897

Attention now turns to another entry.
Q: Please give the documented Kd of [dK][dR][dR][dE][dQ][dL][dK][dH][dK][dL][dE][dQ][dL][dR] [CM4 peptide]
Result: 12.8
